system: NCI-H23 lung; test: NCI tumour cell line growth inhibition, 48 h
measuredProperty: TGI

In the examples that follow, each entry is paired with its recorded TGI.
compound	testSystem	TGI
CN(Cc1nc2c(N)nc(N)nc2nc1N)c1ccc(C(=O)NC(CCC(=O)O)C(=O)O)cc1 (stereo unspecified)	NCI-H23 lung	> 100 µM
C/C=C\C(CC(=O)O)CC(=O)NCCC1CN(S(=O)(=O)C(F)(F)F)c2ccccc21 (stereo unspecified)	NCI-H23 lung	> 100 µM
COc1cc2c(c(OC)c1OC)-c1ccc(SC)c(=O)cc1[C@@H](NC(=O)c1ccc(C#N)cc1)CC2	NCI-H23 lung	< 0.01 µM
C#Cc1ccc(-n2c(/C=C/c3cc(OC)c(OC)c(OC)c3)nc3ncccc3c2=O)cc1	NCI-H23 lung	> 100 µM
COc1ccc(-n2nc(C)c3c2N(C)C2(C)C[C@@H]4C3(C)[C@@H]3CC4(C2)N(C)c2c(c(C)nn2-c2ccc(OC)cc2)[C@H]3C)cc1 (stereo partly specified)	NCI-H23 lung	99.9 µM

Complete the entry with TGI for CCCCCCN1C(=O)CN=C1Nc1ccc2cc3ccc(NC4=NCC(=O)N4CCCCCC)cc3nc2c1 5.23 µM

====

Examples of molecules with documented TGI follow.
system: NCI-H23 lung; experiment: NCI tumour cell line growth inhibition, 48 h
Where a SMILES comes first, the peptide text is derived from it. [ ]: non-standard residue; d: D form. The star is where a group is joined. Phe(4-NO2) = N[CH](Cc1ccc([N+](=O)[O-])cc1)C(=O)O; Boc = CC(C)(C)OC(=O)*; OtBu = CC(C)(C)O*

molecule	TGI
Cc1cccc(N2C(=O)/C(=C/c3ccc(N(CCC#N)CCC#N)cc3C)N=C2c2cc([N+](=O)[O-])ccc2Cl)c1	> 100 µM

Give TGI for COc1cc(C(=O)N/N=C/c2cccc([N+](=O)[O-])c2)cc(OC)c1OC > 100 µM

Provide TGI value for the following molecule: COC(=O)C(=O)C(C(=O)C(=O)Nc1ccccc1C(N)=O)c1nc2ccc(C(=O)c3ccccc3)cc2[nH]c1=O (centres undefined) > 100 µM

Please look at this molecule and report its TGI: COC(=O)C(Cc1ccc([N+](=O)[O-])cc1)NC(=O)C(CC(=O)OC(C)(C)C)NC(=O)OC(C)(C)C (centres undefined) (Boc-Asp(OtBu)-[Phe(4-NO2)]-OMe; configuration not given here) > 100 µM

Using the record for CCN(CC)CCOc1ccc(C2=C(c3ccccc3)CCc3cc(OC)ccc32)cc1 , state its measured TGI. 11.3 µM

Item CC(=O)Oc1ccc2c(c1)c1c(OC(C)=O)c3ccccc3c(OC(C)=O)c1n2Cc1cccc(C)c1 : provide TGI > 100 µM

Please give the documented TGI of Cc1ccc(C2=Nn3c(nc4sc(-c5ccccc5)cc4c3=O)SC2)cc1 > 100 µM

Annotate the molecule CCOC(=O)NNC(=O)NC12CC3CC(CC(C3)C1)C2 with its measured TGI. > 100 µM

Provide measured TGI value, entry: COC1=CC2(C=CC1=O)CCN=c1c(O)c3c(c(O)c12)=NC=N3 (centres undefined) > 100 µM

Return the recorded TGI value; entry: O=C(O)CCCc1nc2c(n1-c1ccccc1)C(=O)c1ccccc1C2=O > 100 µM

Quickly give me recorded TGI for c1csc(-c2ccc(-c3ccc(-c4cccs4)s3)s2)c1 > 100 µM

Entry C[C@]12CC[C@@H]3c4ccc(O)cc4CC[C@H]3[C@@H]1CC[C@@H]2NS(=O)(=O)c1ccc(-c2ccccc2)cc1 needs its TGI filled in; supply it. 17.2 µM

Please list TGI recorded for the molecule CCSc1nc(N)c2cnn(C)c2n1 > 100 µM

Please report the measured TGI for CCOC(=O)Cc1nc2c(=O)[nH]cnc2n1C1OC(COC(C)=O)C(OC(C)=O)C1OC(C)=O (centres undefined) > 100 µM

Tell me its TGI given C=CCOn1c(C=C)nc2c(C)cccc21 as the entry. 24.1 µM

====

system: HL-60(TB) leukemia; assay: NCI tumour cell line growth inhibition, 48 h
measuredProperty: GI50

A selection of reference data follows.
compound	GI50
CCC1(N2C(=O)c3c(F)c(F)c(F)c(F)c3C2=O)C(=O)NC(=O)N(c2ccccc2)C1=O (stereo not given)	2670 nM
CCNC(=O)Oc1ccc(/C(=C(\C)c2ccc(Cl)cc2)c2ccc(OCCN3CCCCC3)cc2)cc1	1990 nM
Cc1cc2c(cc1Cl)SC1=NN(C)C(c3ccccc3O)N1S2(=O)=O (stereo not given)	> 100000 nM
CCOC(=O)Cc1csc(NC(=O)C(OC(=O)c2ccc(N)cc2)c2ccccc2)n1 (stereo not given)	18400 nM

Assign GI50 to the following record: Cc1csc(Nc2nc(-c3cccc(Cl)c3)nc(C(Cl)(Cl)Cl)n2)n1 994 nM

====

system: KM12 colon; test: NCI tumour cell line growth inhibition, 48 h
Quick reference: TGI of the listed items.

Query TGI for CC(=O)OCC1OC(n2c3c(c(-c4ccco4)c(C#N)c2=S)CCCC3)C(OC(C)=O)C(OC(C)=O)C1OC(C)=O (stereo not given) > 31.6 µM

Return TGI (reported value) for this compound: COCCCN1C(=O)C2c3[nH]c4ccccc4c3C3CCC(C(C)(C)C)CC3C2C1=O (stereo not given) 55.5 µM

Note TGI for the compound shown: O=C(Cc1nc2ccc([N+](=O)[O-])cc2[nH]c1=O)C(=O)Nc1cc(Cl)c(Cl)cc1Cl > 100 µM

Provide only the value of recorded TGI for CC(=O)Oc1ccc2c(c1)c1c(OC(C)=O)c3ccccc3c(OC(C)=O)c1n2Cc1cccc(C)c1 > 100 µM

Tell us which TGI value is on record for CN(C)c1ccc(Sc2ccc3nc(N)nc(N)c3c2)cc1 12.2 µM

====

test system: OVCAR-4 ovarian; experiment: NCI tumour cell line growth inhibition, 48 h
measuredProperty: TGI

Study these solved cases before continuing.
compound	TGI
Cc1ccc(S(=O)(=O)NC(=O)NS(=O)(=O)O)cc1	> 100 µM
N#Cc1nnc2c3c(-c4ccc(Cl)cc4)c(C#N)c(=O)[nH]c3nn2c1N	51 µM
Cn1c(COC(=O)NCCN2CCOCC2)nc2c(N3CCOCC3)nc(-c3ccccc3)nc21	2.53 µM
C/C(=N\O)c1ccc(Nc2c3ccccc3nc3occc23)cc1	> 12.2 µM

Answer with TGI of CN1C(=O)C23CC4=CC=CC(O)C4N2C(=O)C1(CO)SS3 (configuration not stated) measured for OVCAR-4 ovarian. 0.524 µM

Under OVCAR-4 ovarian, report TGI for CN1c2ccccc2C(=O)Nc2cnc(Cl)nc21 > 100 µM

Fill in: TGI on OVCAR-4 ovarian, entry CC[C@@]1(O)C(=O)OCc2c1cc1n(c2=O)Cc2cc3c(NC(C)=O)c(O)ccc3nc2-1 44.7 µM

====

tested on: IGROV1 ovarian; assay: NCI tumour cell line growth inhibition, 48 h
Recorded TGI values for a group of molecules are listed next.
Provide the reading as a plain figure in µM.

molecule	measuredProperty	recordedMeasurement
COC1C(CO)OC(n2c3ccccc3c3c4c(c5c6ccccc6[nH]c5c32)C(=O)NC4=O)C(O)C1OC(=O)C(N)CCCCN (stereo not given)	TGI	4.42

Retrieve TGI measured for C=CC[PH+](c1ccccc1)c1ccccc1.C=CC[PH+](c1ccccc1)c1ccccc1.[Cl][Pt][Cl] and print it. 13.9

Specify measured TGI for Cn1c(COC(=O)NCCN2CCOCC2)nc2c(N3CCOCC3)nc(-c3ccccc3)nc21 . 2.15

====

system: UACC-257 melanoma; assay: NCI tumour cell line growth inhibition, 48 h
We use 30 µM as the dividing line for TGI: on or above the line is Condition met, below is Condition not met.

molecule	className
COc1ccc(NC(=O)C2=C(SC)C(=O)N=C2N)cc1	Condition met
C[C@@H](C[C@@H](O)[C@H](O)C(C)(C)O)[C@H]1CC=C2[C@]3(C)[C@H](O)C[C@H]4C(C)(C)[C@H](O)CC[C@]4(C)[C@H]3CC[C@@]21C	Condition met
Cc1[nH]c(=O)nc(N/N=C/c2ccc(O)cc2)c1C(=O)Nc1ccc(Cl)cc1	Condition met

Attention now shifts to the item below.
Item CCOc1cc(C=O)ccc1O with TGI of 30 µM or above? Condition met

====

test system: UACC-62 melanoma; assay: NCI tumour cell line growth inhibition, 48 h; in the data active = GI50 below about 0.43 µM; inactive = the rest
The reply should name one outcome from active, inactive

Examples from the recorded data:
compound	className
COc1cc(C(=O)/C=C/c2c(C(F)(F)F)nc3sccn23)cc(OC)c1OC	inactive
C[C@H](NC(=O)CCC(F)(F)F)C(=O)N[C@@H]1C(=O)N(CCO)c2ncccc2-c2ccccc21	inactive
COC1C(CO)OC(n2c3ccccc3c3c4c(c5c6ccccc6[nH]c5c32)C(=O)NC4=O)C(O)C1OC(=O)C(N)CCCCN (stereo not given)	active

I'd appreciate the recorded outcome for CC(C)n1nc(C#Cc2cccc(NC(=O)c3cccc(C(F)(F)F)c3)c2)c2c(N)ncnc21 from this test. active

I'd appreciate the recorded outcome for Cc1cc2c(cc1Cl)SC1=NN(C)C(c3ccccc3O)N1S2(=O)=O (stereo not given) from this test. inactive

Call for entry CC(=O)Nc1ccc(-n2cnc3cc(-c4ccc(OCCN5CCCCC5)cc4)ccc32)cc1 : inactive

Tell me the assay call for CN(C)c1ccc(Sc2ccc3nc(N)nc(N)c3c2)cc1 please. inactive

Test call, this compound: O=C(Nc1ccccc1)Nc1ccccc1CNc1nc(Nc2ccc(OCCN3CCCC3)cc2)ncc1Cl inactive

Query: recorded result category for CCCCCCCCCCCCCCCCCC1=NC(C)(C)CN1CCO in this test inactive

Tell me the recorded outcome of this test for COc1ccc(N=C2NN=C(c3c[nH]c4ccccc34)CS2)cc1OC . inactive
